- Method Description: Fraction unbound in rat plasma
- Assay type: ADME, cell-free
Result Type: fraction unbound

[ask] Field request: fraction unbound | item: CC1(C#N)CN(c2cc(COc3ccc(F)c(F)c3F)nc(-c3ccccn3)n2)C1
[reply] 0.056

1 = Cc1cc(COc2ccc(F)c(F)c2F)nc(-c2ccccn2)n1
2 = Fc1ccc(OCc2cc(OCC3(F)COC3)nc(-c3ccccn3)n2)c(F)c1F
[ask] Kindly identify the item with the lower fraction unbound figure among these two: 1 and 2 Give the label under which the chosen entry appears.
[reply] 2

====

- Method Description: Lipophilicity, log D of the compound at pH 7.4
- Type: physicochemical
- Assay Context: buffer
Result Type: logD

Before answering, review these 5 worked examples.
[ask] Field request: logD | item: CC(C)Nc1cc(COc2cccc(F)c2)nc(-c2ccccn2)n1
[reply] 4.3

[ask] Would you mind doing Cc1cc(COc2ccc(S(C)(=O)=O)cc2)nc(-c2ccccn2)n1 as well?
[reply] 1.5

[ask] Would you mind doing Cc1cc(COc2ccccc2)nc(-c2ccccn2)n1 as well?
[reply] 3.4

[ask] Would you mind doing Cc1cc(COc2ccccc2C#N)nc(-c2ccccn2)n1 as well?
[reply] 2.7

[ask] Would you mind doing Cc1cc(COc2c(F)ccc(F)c2F)nc(-c2ccccn2)n1 as well?
[reply] 3.1

I = Fc1ccc(OCc2cc(OCC3COC3)nc(-c3ccccn3)n2)c(F)c1F
II = CC(=O)Nc1ccc(OCc2cc(C)nc(-c3ccccn3)n2)cc1
[ask] Kindly identify the item with the lower logD figure among these two: I and II Give the label under which the chosen entry appears.
[reply] II
(II: 1.9, I: 3.7)

====

- Method Description: Clearance in rat
- Type: ADME, organism-based
- Assay Context: in vivo
Result Type: clearance (mL/min/kg)

[ask] Field request: clearance | item: Cc1cc(COc2ccc(F)c(F)c2F)nc(-c2ccccn2)n1
[reply] 24

1 = Fc1ccc(OCc2cc(OCC3(F)COC3)nc(-c3ccccn3)n2)c(F)c1F
2 = CC1(C#N)CN(c2cc(COc3ccc(F)c(F)c3F)nc(-c3ccccn3)n2)C1
[ask] Kindly identify the item with the lower clearance figure among these two: 1 and 2 Give the label under which the chosen entry appears.
[reply] 1

====

- Method Description: Fraction unbound in human plasma
- Assay type: ADME, cell-free
Result Type: fraction unbound

I = CC1(C#N)CN(c2cc(COc3ccc(F)c(F)c3F)nc(-c3ccccn3)n2)C1
II = Cc1cc(COc2ccc(F)c(F)c2F)nc(-c2ccccn2)n1
III = Fc1ccc(OCc2cc(OCC3(F)COC3)nc(-c3ccccn3)n2)c(F)c1F
[ask] Using the recorded fraction unbound, list the entries above from smallest to largest. Present the labels in the sequence the task asks for.
[reply] III, II, I

====

- Method Description: Oral bioavailability in rat
- Type: ADME, organism-based
- Assay Context: in vivo
Result Type: bioavailability (%)

[ask] Field request: bioavailability | item: Cc1cc(COc2ccc(F)c(F)c2F)nc(-c2ccccn2)n1
[reply] 39

A = CC1(C#N)CN(c2cc(COc3ccc(F)c(F)c3F)nc(-c3ccccn3)n2)C1
B = Fc1ccc(OCc2cc(OCC3(F)COC3)nc(-c3ccccn3)n2)c(F)c1F
[ask] Hi, I'm comparing A with B and wondering which one has the bigger number for bioavailability. Any idea? Give the label under which the chosen entry appears.
[reply] A
(A: 32%, B: 12%)

====

- Method Description: Solubility of compound
- Format: physicochemical
Result Type: solubility (µM)

[ask] Field request: solubility | item: Fc1ccc(OCc2cc(OCC3(F)COC3)nc(-c3ccccn3)n2)c(F)c1F
[reply] 2.9

A = CC1(C#N)CN(c2cc(COc3ccc(F)c(F)c3F)nc(-c3ccccn3)n2)C1
B = Cc1cc(COc2ccc(F)c(F)c2F)nc(-c2ccccn2)n1
[ask] Hi, I'm comparing A with B and wondering which one has the bigger number for solubility. Any idea? Give the label under which the chosen entry appears.
[reply] B

====

- Test system: Liver microsome
- Method Description: Intrinsic clearance in human liver microsomes […]
- Assay type: ADME
Result Type: CLint (µL/min/mg)

[ask] Lab request: please report CLint under test system Liver microsome for Cc1cc(COc2ccc(F)c(F)c2F)nc(-c2ccccn2)n1
[reply] 57

[ask] Would you mind doing Fc1ccc(OCc2cc(OCC3(F)COC3)nc(-c3ccccn3)n2)c(F)c1F as well?
[reply] 56

[ask] Would you mind doing CC1(C#N)CN(c2cc(COc3ccc(F)c(F)c3F)nc(-c3ccccn3)n2)C1 as well?
[reply] 52

====

- System: Hepatocyte
- Method Description: Intrinsic clearance in rat hepatocytes measured per 10^6 cells
- Format: ADME, cell-based
Result Type: CLint (µL/min/1e6 cells)

[ask] Field request: CLint | item: Fc1ccc(OCc2cc(OCC3(F)COC3)nc(-c3ccccn3)n2)c(F)c1F
[reply] 72

a = Cc1cc(COc2ccc(F)c(F)c2F)nc(-c2ccccn2)n1
b = CC1(C#N)CN(c2cc(COc3ccc(F)c(F)c3F)nc(-c3ccccn3)n2)C1
[ask] Kindly identify the item with the lower CLint figure among these two: a and b Give the label under which the chosen entry appears.
[reply] a

====

- System Tested: Free fatty acid receptor 1 (Homo sapiens)
- Method Description: Antagonist activity against human GPR40 expressed in HEK293s FLPIN cells assessed as elaidic acid stimulated IP1 release after 2 hrs by TR-FRET analysis
- Assay type: functional, cell-based
Result Type: IC50 (nM)

[ask] Field request: IC50 | item: COC1(COc2cc(COc3ccc(F)c(F)c3F)nc(-c3ccccn3)n2)COC1
[reply] 501

[ask] Would you mind doing CC1(C)CN(c2cc(COc3ccc(F)c(F)c3F)nc(-c3ccccn3)n2)C1 as well?
[reply] 25.1

[ask] Would you mind doing COc1ccc(OCc2cc(C)nc(-c3ccccn3)n2)cc1 as well?
[reply] 7940

I = Fc1ccc(OCc2cc(OCC(F)(F)F)nc(-c3ccccn3)n2)c(F)c1F
II = OC1CN(c2cc(COc3ccc(F)c(F)c3F)nc(-c3ccccn3)n2)C1
[ask] Hi, I'm comparing I with II and wondering which one has the bigger number for IC50. Any idea? Give the label under which the chosen entry appears.
[reply] II
(II: 3160 nM, I: 7.94 nM)

====

- Method Description: Lipophilicity, log D of the compound at pH 7.4
- Format: physicochemical
- Assay Context: buffer
Result Type: logD

Before answering, review these 6 worked examples.
[ask] Field request: logD | item: N#CCC1(COc2cc(COc3ccc(F)c(F)c3F)nc(-c3ccccn3)n2)COC1
[reply] 3.3

[ask] Would you mind doing Cc1cc(COc2cccc(Cl)c2)nc(-c2ccccn2)n1 as well?
[reply] 3.7

[ask] Would you mind doing Cc1cc(COc2cccc(S(C)(=O)=O)c2)nc(-c2ccccn2)n1 as well?
[reply] 1.7

[ask] Would you mind doing CC1(CS(C)(=O)=O)CN(c2cc(COc3ccc(F)c(F)c3F)nc(-c3ccccn3)n2)C1 as well?
[reply] 2.9

[ask] Would you mind doing Cc1cc(COc2ccc(F)c(F)c2F)nc(-c2ccccn2)n1 as well?
[reply] 3.3

[ask] Would you mind doing Cc1cc(COc2ccccc2S(C)(=O)=O)nc(-c2ccccn2)n1 as well?
[reply] 1.5

1 = Cc1cc(COc2c(F)cc(F)cc2F)nc(-c2ccccn2)n1
2 = CC(=O)Nc1cccc(OCc2cc(C)nc(-c3ccccn3)n2)c1
[ask] Hi, I'm comparing 1 with 2 and wondering which one has the bigger number for logD. Any idea? Give the label under which the chosen entry appears.
[reply] 1
(1: 3.2, 2: 2.1)

a = Cc1cc(COc2ccc(F)cc2)nc(-c2ccccn2)n1
b = CC1(C)CN(c2cc(COc3ccc(F)c(F)c3F)nc(-c3ccccn3)n2)C1
[ask] Kindly identify the item with the lower logD figure among these two: a and b Give the label under which the chosen entry appears.
[reply] a

====

- System Tested: Free fatty acid receptor 1 (Homo sapiens, UniProt O14842)
- Sequence (O14842 whole entry): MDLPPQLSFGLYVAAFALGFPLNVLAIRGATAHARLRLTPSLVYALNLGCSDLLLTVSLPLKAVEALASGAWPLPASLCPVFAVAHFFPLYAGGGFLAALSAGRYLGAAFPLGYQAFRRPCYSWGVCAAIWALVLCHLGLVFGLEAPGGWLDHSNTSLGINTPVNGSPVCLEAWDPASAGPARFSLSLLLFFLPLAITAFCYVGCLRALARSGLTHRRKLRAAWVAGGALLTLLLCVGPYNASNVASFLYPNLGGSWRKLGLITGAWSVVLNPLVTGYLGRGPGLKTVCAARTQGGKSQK
- Method Description: Antagonist activity against human GPR40 expressed in HEK293s FLPIN cells assessed as elaidic acid stimulated IP1 release after 2 hrs by TR-FRET analysis
pIC50: −log10 of the molar value.
Result Type: pIC50

Before answering, review these 10 worked examples.
[ask] Lab request: please report pIC50 under test system Free fatty acid receptor 1 (Homo sapiens, UniProt O14842) for CCNc1cc(COc2cccc(F)c2)nc(-c2ccccn2)n1
[reply] 6.20

[ask] Would you mind doing Cc1cc(COc2cc(F)c(F)cc2F)nc(-c2ccccn2)n1 as well?
[reply] 6.40

[ask] Would you mind doing Cc1cc(N/N=C/c2ccccc2)nc(-c2ccccc2)n1 as well?
[reply] 6.60

[ask] Would you mind doing Fc1ccc(OCc2cc(OCC3COC3)nc(-c3ccccn3)n2)c(F)c1F as well?
[reply] 6.50

[ask] Would you mind doing Cc1cc(COc2cccc(Cl)c2)nc(-c2ccccn2)n1 as well?
[reply] 6.40

[ask] Would you mind doing Fc1ccc(OCc2cc(OCC3CCC3)nc(-c3ccccn3)n2)c(F)c1F as well?
[reply] 7.90

[ask] Would you mind doing Cc1cc(COc2ccc(F)c(F)c2F)nc(-c2ccccn2)n1 as well?
[reply] 6.60

[ask] Would you mind doing COc1ccccc1OCc1cc(C)nc(-c2ccccn2)n1 as well?
[reply] 5.70

[ask] Would you mind doing CCOc1cc(COc2cccc(F)c2)nc(-c2ccccn2)n1 as well?
[reply] 6.60

[ask] Would you mind doing Cc1cc(COc2c(F)ccc(F)c2F)nc(-c2ccccn2)n1 as well?
[reply] 5.80

a = Cc1cc(COc2ccccc2F)nc(-c2ccccn2)n1
b = CC1(C#N)CN(c2cc(COc3ccc(F)c(F)c3F)nc(-c3ccccn3)n2)C1
c = Cc1cc(COc2c(F)cc(F)cc2F)nc(-c2ccccn2)n1
d = CC(C)Nc1cc(COc2cccc(F)c2)nc(-c2ccccn2)n1
e = Cc1cc(COc2ccc(F)cc2)nc(-c2ccccn2)n1
[ask] Sequence the entries by pIC50, beginning with the highest number. Present the labels in the sequence the task asks for.
[reply] d, b, a, e, c
(d: 7.00, b: 6.80, a: 6.40, e: 6.20, c: 5.90)

a = Fc1ccc(OCc2cc(N3CC4(CCO4)C3)nc(-c3ccccn3)n2)c(F)c1F
b = COc1cccc(OCc2cc(C)nc(-c3ccccn3)n2)c1
c = CC1(CS(C)(=O)=O)CN(c2cc(COc3ccc(F)c(F)c3F)nc(-c3ccccn3)n2)C1
[ask] Provide the items ranked by increasing pIC50. Present the labels in the sequence the task asks for.
[reply] c, b, a

a = Cc1cc(COc2cc(F)c(F)c(F)c2)nc(-c2ccccn2)n1
b = Cc1cc(COc2cccc(C#N)c2)nc(-c2ccccn2)n1
[ask] Hi, I'm comparing a with b and wondering which one has the bigger number for pIC50. Any idea? Give the label under which the chosen entry appears.
[reply] a
(a: 6.40, b: 5.60)

1 = Cc1cc(COc2cc(F)cc(F)c2F)nc(-c2ccccn2)n1
2 = Cc1cc(COc2ccccc2Cl)nc(-c2ccccn2)n1
3 = COc1cc(COc2cccc(F)c2)nc(-c2ccccn2)n1
[ask] Provide the items ranked by increasing pIC50. Present the labels in the sequence the task asks for.
[reply] 3, 1, 2
(3: 5.90, 1: 6.30, 2: 6.50)

Where do the numbers come from? From ChEMBL document CHEMBL3739339.
